- EXPERIMENT: protein stability index of a GFP-peptide fusion (GPS, HEK-293T) (PSI 1-6); higher = more stable;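 also: 24-mer peptide tiles fused after GFP, lentivirally expressed, FACS-sorted into six equal bins by GFP/DsRed ratio, decoded by Illumina sequencing, PSI is the read-weighted mean bin number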
- MEASUREMENT_CONTEXT: treatment: DMSO; c terminus: a fixed tail appended
Listed next: entries and their corresponding protein stability index.
Answer with a number only.

Worked examples follow.
CHAIN: EINSHSLFSKWFSESGKLVTKMFQ [TRIP13]
protein stability index: 2.58
--
CHAIN: QSLNDRLASYLDRVRSLETENRRL [KRT18]
protein stability index: 3.65
--
CHAIN: LNVFQTVSRMRTQRAFSIQTPEQY [PTPN9]
protein stability index: 2.38

Fill in: protein stability index of IKTAVNLPLERDAESFLLKSPIAP [CDC25B] is ___ 3.23

Entry RTIVEEVQDGKVISSREQVHQTTR [KRT17] please 4.69

Entry TVVKSLIDNSSEIEDEDQILENSS [FAN1] please 5.2

Entry MTSTGQDSTTTRQRRSRQNPQSPP [HDAC6] please 5.46

Entry MITLSEAYIQIWKRRDNDETNQQG [USP39] please 3.15

Entry QPASELLQDVRVNQSRCEMKTFVS [TRIM15] please 2.98

* * *

- EXPERIMENT: protein stability index of a GFP-peptide fusion (GPS, HEK-293T) (PSI 1-6); higher = more stable
- MEASUREMENT_CONTEXT: treatment: DMSO; c terminus: a fixed tail appended
Assign class by protein stability index: not lower than 3 means MET; lower than 3 means NOT MET.

Recorded results for 3 sequences are shown here.
CHAIN: VEISRRLRHSNPRADPLVCATGLL [SPNS1]
LABEL: NOT MET

CHAIN: MNKSENLLFAGSSLASQVHAAAVN [INVS]
LABEL: MET

CHAIN: AQAGTPAPTKPHDYRQEQPETFWI [SPAG8]
LABEL: MET

protein stability index >= 3 for LQDVIMQVADVPEKPRVPAFACQV [ZNF511] ? NOT MET

Entry TLIMLLSLAAFSVISVVSYLILAL [RTN3] please NOT MET

Entry GKSVSSSSSVETGPSVSEPPGLPR [SPATS1] please MET

* * *

- EXPERIMENT: protein stability index of a GFP-peptide fusion (GPS, HEK-293T) (PSI 1-6); higher = more stable
- MEASUREMENT_CONTEXT: treatment: MLN4924 1 uM, 8 h; c terminus: a fixed tail appended
Listed next: entries and their corresponding protein stability index.
Answer with a number only.

CHAIN: GALLAPIRVLLAFIVLFLLWPFAW [LPCAT4]
protein stability index: 2.67

Now examine the next entry.
Fill in: protein stability index of TSIEPSKSSIIPFRALKRPLQFLG [ZER1] is ___ 2.22

* * *

- EXPERIMENT: protein stability index of a GFP-peptide fusion (GPS, HEK-293T) (PSI 1-6); higher = more stable
- MEASUREMENT_CONTEXT: treatment: DMSO; c terminus: a fixed tail appended
PARAMETER: protein stability index
Answer with a number only.

Worked examples follow.
CHAIN: RQLALPATEQAATQESTFQELCEG [NOP53]
protein stability index: 5.12
//
CHAIN: LTDAYGPPSNFLEIDIFNPQTVGV [SNX12]
protein stability index: 2.87

Now examine the next entry.
Fill in: protein stability index of LTDAVAPGNKGRGQRGNTESKTDG [TCF25] is ___ 5.5

* * *

- EXPERIMENT: protein stability index of a GFP-peptide fusion (GPS, HEK-293T) (PSI 1-6); higher = more stable
- MEASUREMENT_CONTEXT: treatment: DMSO; c terminus: a fixed tail appended
Listed next: entries and their corresponding protein stability index.
Answer with a number only.

Fill in: protein stability index of VRYLNAYTGIVLLRCRKEFYQLVW [POP5] is ___ 1.94

Entry AASEAGRAMHLMKKREKQREQMEQ [FAM50A] please 5.05

* * *

- EXPERIMENT: protein stability index of a GFP-peptide fusion (GPS, HEK-293T) (PSI 1-6); higher = more stable
- MEASUREMENT_CONTEXT: treatment: DMSO; c terminus: a fixed tail appended
Listed next: entries and their corresponding protein stability index.

CHAIN: ASGSVLRLVDAVLGAEIRNGMAII [HDAC6]
RESULT: 2.91
//
CHAIN: HLIFSYSVWVLRDFPEDGLKIFTE [VPS39]
RESULT: 2.98
//
CHAIN: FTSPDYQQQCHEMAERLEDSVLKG [SDE2]
RESULT: 3.01

Now examine the next entry.
Fill in: protein stability index of IDGKGRGVIATKQFSRGDFVVEYH [KMT5A] is ___ 2.91

* * *

- EXPERIMENT: protein stability index of a GFP-peptide fusion (GPS, HEK-293T) (PSI 1-6); higher = more stable
- MEASUREMENT_CONTEXT: treatment: MLN4924 1 uM, 8 h; c terminus: a fixed tail appended
PARAMETER: protein stability index
Answer with a number only.

Worked examples follow.
CHAIN: ITNQEELWKMKPRRNLEEDDYLHK [STEAP1]
PARAMETER: protein stability index
NUMERIC_RESULT: 4.02
--
CHAIN: IWDINNQICTVKDIKAEPQPLSPA [ATF6]
PARAMETER: protein stability index
NUMERIC_RESULT: 4.1
--
CHAIN: VRHNLGDTRLGQVSALPLPPAMKR [SPSB2]
PARAMETER: protein stability index
NUMERIC_RESULT: 3.98

Now examine the next entry.
Fill in: protein stability index of ESDYTYSSSYEQFNGELPNGRHKI [SRPK2] is ___ 3.97

* * *

- EXPERIMENT: protein stability index of a GFP-peptide fusion (GPS, HEK-293T) (PSI 1-6); higher = more stable
- MEASUREMENT_CONTEXT: treatment: DMSO; c terminus: a fixed tail appended
Listed next: entries and their corresponding protein stability index.
Answer with a number only.

Worked examples follow.
CHAIN: GLAMALEPNTTFLRKSLKAALKHL [FANCE]
protein stability index: 2.48
//
CHAIN: DLDPLELIALANRFCLPHLVALAE [RHOBTB1]
protein stability index: 2.5
//
CHAIN: LHPRPDWEHSAPQRLPRSAPPGSL [PCDHGC5]
protein stability index: 4.78

Fill in: protein stability index of TQAPPSVILGVTNPFFAKTLQHWP [DENND6A] is ___ 2.26

Entry DHYAAIKKAWDDLKKYLEPRCPRM [FBXO3] please 2.55

Entry LGDRDRSRAALVCRKWNQMMYSAE [FBXO39] please 2.72

Entry SASEEEDTKPKPTKRKRKGSSAVG [INTS3] please 5.23

Entry RMLMKRLDVTVQSFGWSDRAKVKT [FAM98B] please 2.48

Entry EAFALPDSLLVVLDMDEGTLSFIV [SPSB4] please 2.42

Entry LLARGTMQPFNYVTLQCLAARALD [FEM1A] please 2.44

Entry ELLREGRASATTTITTAAATSVTV [ZBTB22] please 3.42

Entry AFADRDQSERQRHESQQLATETQA [TEKT4] please 5.11

Entry QEYQLPYQRVLPLPIFTPAKMGAT [TCAP] please 3.01

* * *

- EXPERIMENT: protein stability index of a GFP-peptide fusion (GPS, HEK-293T) (PSI 1-6); higher = more stable
- MEASUREMENT_CONTEXT: treatment: DMSO; c terminus: a fixed tail appended
Listed next: entries and their corresponding protein stability index.
Answer with a number only.

Worked examples follow.
CHAIN: RTLASGRLLSYRGERVAARGYWGD [DNAAF3]
NUMERIC_RESULT: 2.96

CHAIN: WVLLFTPCSFVCWYRPMYKAFRSD [SCAMP3]
NUMERIC_RESULT: 2.92

CHAIN: ESEDDPVVKKIALREIRMLKQLKH [CDKL4]
NUMERIC_RESULT: 2.96

Now examine the next entry.
Fill in: protein stability index of LIVPFGLLYSEVTASSLVKINLQG [ADD1] is ___ 3.03

* * *

- EXPERIMENT: protein stability index of a GFP-peptide fusion (GPS, HEK-293T) (PSI 1-6); higher = more stable
- MEASUREMENT_CONTEXT: treatment: MLN4924 1 uM, 8 h; c terminus: a fixed tail appended
PARAMETER: protein stability index
Answer with a number only.

CHAIN: ISDRYSPELRQLVLSLLSLEPAQR [NEK8]
protein stability index: 2.3

Now examine the next entry.
Fill in: protein stability index of ILKRLLKEQHLWDVDLLDSKVIEI [DLC1] is ___ 2.02

* * *

Listed next: entries and their corresponding protein stability index.
- EXPERIMENT: protein stability index of a GFP-peptide fusion (GPS, HEK-293T) (PSI 1-6); higher = more stable
- MEASUREMENT_CONTEXT: treatment: DMSO; c terminus: a fixed tail appended
Answer with a number only.

CHAIN: SRVNNASYCPHCGEESSKAKEVTI [EHMT1]
protein stability index: 3.39

CHAIN: QEIIKTTEQLIEAVNNGDFEAYAK [CAMK2B]
protein stability index: 4.27

CHAIN: VANRHGHTCLMISCYKGHREIARY [FEM1A]
protein stability index: 2.54

Fill in: protein stability index of PTGEGSISHEEQKSVRLARELESR [CHCHD6] is ___ 5.33

Entry DRDGTINLSEFQHVISRSPDFASS [CIB1] please 4.31

Entry EERVETTVTSLKTKVGGTNPNGGS [TPD52L1] please 5.11

Entry FLSEEEYWKLQIFFTNVIQALGEH [CCNC] please 2.42

Entry LTVLQRLDVWLSGGNDLCVWNRKL [WDR41] please 2.17

Entry PEKIGTRFLLYTNENPNNFQILLL [PNLIPRP1] please 2.26

Entry HTKRLYRAVVEAVHRLDLILCNKT [SMG5] please 2.77

Entry SVWVLRDFPEDGLKIFTEDLPEVE [VPS39] please 3.55

Entry YNPPKDDGSTYKIELEGISVMVMR [GAN] please 2.14

Entry AGLGPGSRRPLDEAVAGAEGREAP [DENND6A] please 5.39

Entry VRHNLGDTRLGQVSALPLPPAMKR [SPSB2] please 3.89

Entry PCLCLSWEEAQSPANCPACREPSP [TRIM43] please 4.74

Entry RPIIASISSGVVSIWAQNQVENWS [RBBP5] please 2.22

Entry YPPFWDEDQHKLYQQIKAGAYDFP [CAMK2B] please 2.85

Entry VASLERFSTYTSDKDENKLSEASG [ZC3H15] please 5.01

Entry PPPLDQYVKFDAVSGDYYPIIYFN [CLPTM1] please 2.32

Entry FWQTQYNNMNAVNLFFAWIKIFKY [PKD2L1] please 2.38

Entry DDIRKGIVLLEELLPKGSKEEQRD [FIS1] please 4.63

Entry RELLDRAMREAIQSYPSQDKPLPP [SOAT2] please 3.94

Entry KRRVALSPVTENSTSLSFLDSCNS [MYBL2] please 3.65
